Biological target: androgen receptor (AdEasy+rAR, COS-7 cells) (Rattus norvegicus)
Construct: expressed in transfected cells; host or cells: COS-7 cells transduced with adenovirus AdEasy+rAR
Sequence (P15207 whole entry S389L): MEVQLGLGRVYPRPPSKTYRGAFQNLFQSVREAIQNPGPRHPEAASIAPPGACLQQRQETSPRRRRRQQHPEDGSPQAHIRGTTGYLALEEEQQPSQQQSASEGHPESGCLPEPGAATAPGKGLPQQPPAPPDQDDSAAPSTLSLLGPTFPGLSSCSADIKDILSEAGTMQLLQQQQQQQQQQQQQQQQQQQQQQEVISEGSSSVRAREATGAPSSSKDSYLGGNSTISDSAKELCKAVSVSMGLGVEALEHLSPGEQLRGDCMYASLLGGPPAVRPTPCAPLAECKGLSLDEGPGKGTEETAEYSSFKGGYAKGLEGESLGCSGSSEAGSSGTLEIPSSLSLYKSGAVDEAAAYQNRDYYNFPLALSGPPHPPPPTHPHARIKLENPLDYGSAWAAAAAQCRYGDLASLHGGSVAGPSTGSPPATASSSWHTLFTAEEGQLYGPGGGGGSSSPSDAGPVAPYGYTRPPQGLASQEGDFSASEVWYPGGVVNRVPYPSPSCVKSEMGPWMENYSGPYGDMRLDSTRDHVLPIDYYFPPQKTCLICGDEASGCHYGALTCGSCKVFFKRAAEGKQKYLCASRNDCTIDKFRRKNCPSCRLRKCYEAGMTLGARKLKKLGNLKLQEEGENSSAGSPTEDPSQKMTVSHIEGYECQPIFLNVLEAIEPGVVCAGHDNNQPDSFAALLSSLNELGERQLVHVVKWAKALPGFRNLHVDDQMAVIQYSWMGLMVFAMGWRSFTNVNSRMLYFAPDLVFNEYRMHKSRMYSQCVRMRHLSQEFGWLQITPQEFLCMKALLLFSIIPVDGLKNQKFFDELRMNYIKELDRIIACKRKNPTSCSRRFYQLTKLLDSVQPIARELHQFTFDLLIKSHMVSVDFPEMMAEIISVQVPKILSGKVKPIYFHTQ
Assay: COS-7 Whole-Cell Androgen Receptor Binding Assay, Adenovirus Transduction
Settings: concentration of 3000 nM
I'd appreciate it if you could supply inhibition at 3 µM values for the items below.
Write the answer as a number in %, unit excluded.

Query: inhibition at 3 µM for CC(O)(CSCC(F)(F)F)c1cc2cc(F)c(C(F)(F)F)cc2[nH]1 (stereo not shown) ?
Result: 100

Query: Would you kindly share the measured inhibition at 3 µM for CC[S+]([O-])C[C@](C)(O)c1cc2cc([N+](=O)[O-])c(C(F)(F)F)cc2[nH]1 (stereo in doubt) ?
Result: 35

Query: Returns the measured inhibition at 3 µM for the input compound. Input: CC(C)CSCC(C)(O)c1cc2cc([N+](=O)[O-])c(C(F)(F)F)cc2[nH]1 (stereo not shown)
Result: 67

Query: Which inhibition at 3 µM value belongs to CSCC(C)(O)c1cc2cc(Cl)c(C(F)(F)F)cc2[nH]1 (stereo not shown) ?
Result: 98

Query: Could you share which inhibition at 3 µM value was measured for CC(O)(CSCC(F)(F)F)c1cc2cc([N+](=O)[O-])c(C(F)(F)F)cc2[nH]1 (stereo not shown) ?
Result: 92

Query: Given the entry CCS(=O)(=O)CC(C)(O)c1[nH]c2cc(C(F)(F)F)c(C#N)cc2c1C (racemic) [Compound 246] , report its measured inhibition at 3 µM.
Result: 70

Query: Find the recorded inhibition at 3 µM belonging to CCSCC(C)(O)c1cc2cc(C#N)c(Cl)cc2[nH]1 (stereo not shown) and report it.
Result: 82
